- assayed system: HLA-B*44:02
- test protocol: IEDB peptide-MHC binding, purified MHC/direct/fluorescence; filed as Kd, often an IC50 or EC50 that approximates it; bounds were set here for any values at or beyond the usual limits of such assays
- run conditions: source organism: Vibrio cholerae
pKd: −log10 of the molar value.
measured attribute: pKd

# get_value(readout='pKd', item= MMFDAMGAL )
≤ 4.70

* * *

- assayed system: HLA-A*68:02
- test protocol: IEDB peptide-MHC binding, purified MHC/competitive/fluorescence; filed as Kd, often an IC50 or EC50 that approximates it; bounds were set here for any values at or beyond the usual limits of such assays
- run conditions: source organism: Bacillus anthracis str. A0488
measured attribute: Kd (nM)
All answers are understood in nM, so give the number only.

# get_value(readout='Kd', item= SSIIKTFVV )
17.9
